Test system: MCF7 breast
Assay: NCI-60 one-dose screen, 48 h (100 = growth as untreated, 0 = no growth, -100 = all killed)
Conditions: 10 µM unless noted
Compounds without any hit were thinned out: in the full panel of roughly 83,000, 20% have a hit.
The reader will find reported growth values listed item by item below.
property_name: growth (%)

>>> reported_measurement("COc1ccc(/C=N/NC(=O)c2[nH]c3ccc(Br)cc3c2-c2ccccc2)o1")
9.83
>>> reported_measurement("COC(=O)C1CN(S(=O)(=O)/N=C2\\NC(=O)NC2=C(Cl)Cl)C1")
34.1
>>> reported_measurement("CCOC(=O)c1sc(NCC(=O)Nc2cccc([N+](=O)[O-])c2)c(C(=O)OCC)c1C")
-4.78
>>> reported_measurement("CN(C)c1ccc(/C=c2\\sc3nc4ccccc4n3c2=O)cc1")
70.3
>>> reported_measurement("C#Cc1nc(C2=C(C)/C(=N/OCc3ccccc3)CC2)cs1")
49.5

----------
Tested on: MCF7 breast
Assay: NCI-60 one-dose screen, 48 h (100 = growth as untreated, 0 = no growth, -100 = all killed)
Conditions: 10 µM unless noted
The panel holds about 83,000 compounds, 20% with a hit somewhere; the sample as a whole holds those more often.
Threshold 20%. growth below it: condition met. growth at it or above: condition not met.

>>> class_label("COc1cc(/C=C/C(=O)c2cc(OC)c(OC)c(OC)c2)ccc1OCc1ccc(F)cc1")
"condition met"
>>> class_label("COc1ccc(CNS(=O)(=O)/N=C2\\NC(=O)NC2=C(Cl)Cl)cc1")
"condition met"
>>> class_label("O=C(N/N=C/c1ccc([N+](=O)[O-])s1)c1[nH]c2ccc(Br)cc2c1-c1ccccc1")
"condition met"
>>> class_label("N#Cc1nc(-c2ccccc2)oc1S(=O)(=O)N1CCN(CCc2ccccn2)CC1")
"condition not met"
>>> class_label("Cn1cc(-c2cc(N)n3nc(-c4cn(C)c5ccc(Cl)cc45)cc3n2)c2cc(Cl)ccc21")
"condition met"

----------
Tested on: HCT-116 colon
Test: NCI-60 one-dose screen, 48 h
Conditions: 10 µM unless noted
The panel holds about 83,000 compounds, 20% with a hit somewhere; the sample as a whole holds those more often. The source made the active and inactive calls. How the source made its calls: active means growth percent below 10; inactive means the rest.
Outcomes: active, inactive

>>> class_label("N/C(=N\\c1nc2c(Br)cccc2s1)C(Br)Br")
"active"
>>> class_label("Nc1cc(-c2c[nH]c3ccc(Cl)cc23)nc2cc(-c3c[nH]c4ccc(Cl)cc34)nn12")
"inactive"
>>> class_label("N#Cc1nc(-c2ccccc2)oc1S(N)(=O)=O")
"inactive"
>>> class_label("Cc1ccccc1NC(=O)/C=C/c1ccc(OCCOc2ccc3c(C)cc(=O)oc3c2)cc1")
"inactive"
>>> class_label("O=C(CSc1nc2sc3c(c2c(=O)n1-c1ccc(Cl)cc1)CCCC3)NNC(=O)Nc1ccc(Cl)c(C(F)(F)F)c1")
"inactive"

----------
Test system: HCT-15 colon
Assay: NCI-60 one-dose screen, 48 h
Conditions: 10 µM unless noted
About 83,000 compounds went through this panel and 20% of them were active in at least one assay; those are over-represented in the sample as a whole. The source made the active and inactive calls. Rule for the calls: active = growth percent below 10; inactive = the rest.
Possible outcomes: True (active), False (inactive)

>>> class_label("N#Cc1c(-c2ccc(Cl)cc2)nc2c(-c3ccccc3)c(Nc3ccccc3)nn2c1N")
"False"
>>> class_label("COc1ccc([C@@H]2c3[nH]c4ccccc4c3CC3C(=O)N(C4CCN(Cc5c(F)cccc5F)CC4)CC(=O)N32)c(OC)c1 (stereo not given in full)")
"False"
>>> class_label("Cc1nc(-c2cc3ccccc3oc2=O)ccc1C(=O)/C=C/c1ccc(N2CCOCC2)cc1")
"False"
>>> class_label("COc1cc(/C=C/C(=O)c2ccc(Cl)cc2)ccc1Oc1nc(NCCO)nc(N2CCOCC2)n1")
"False"
>>> class_label("COc1cc(-c2ccc3ncnc(NC(C)c4ccccc4)c3c2)cnc1OC (stereo not given)")
"False"
>>> class_label("c1ccc2c(NCCCn3ccnc3)c3oc4ccccc4c3nc2c1")
"True"
>>> class_label("COc1cc(N=Cc2sc(Nc3nccs3)nc2O)cc(OC)c1OC")
"False"
>>> class_label("CC(C)Sc1nc(Nc2ccc(S(N)(=O)=O)cc2)c(C#N)c(-c2ccc(F)cc2)n1")
"False"
>>> class_label("CCN(CC)c1ccc(C=O)c(OCc2cn(CC(=O)Nc3ccc(Cl)cc3)nn2)c1")
"False"
>>> class_label("Oc1c(Cl)cc(Cl)c2ccc(CN3CCCCC3)nc12")
"False"
>>> class_label("CN(C)CCCNc1c2ccccc2nc2c1oc1ccc(Cl)cc12")
"True"
>>> class_label("CC1=C(C)C(=O)C(Nc2cccc(C(F)(F)F)c2)=C(Cl)C1=O")
"False"
>>> class_label("Cc1cc2nc3c4cc(Cl)ccc4n(CC(=S)NCCN(C)C)c3nc2cc1C")
"True"
>>> class_label("Cc1cc(=O)oc2cc(OCCCOc3ccc(/C=C/C(=O)Nc4ccc(Cl)cc4)cc3)ccc12")
"False"
>>> class_label("COc1cccc(NC2=CC(=O)C(C)=C(C)C2=O)c1")
"False"
>>> class_label("CS(=O)(=O)c1ccc(-c2nc3ccccn3c2-c2nc3ccc([N+](=O)[O-])cc3[nH]2)cc1")
"False"
>>> class_label("O=C(CCN1C(=O)/C(=C/c2ccccc2F)SC1=S)N1CCOCC1")
"False"
>>> class_label("O=C(c1ccc(Cl)cc1)C1[C@H](c2ccc(Cl)cc2)[C@@H](c2ccccc2)NC12C(=O)Nc1ccc(Br)cc12 (stereo not given in full)")
"False"
>>> class_label("Cc1cccc(/C=C/c2nn3c(-c4ccco4)nnc3s2)c1")
"False"
>>> class_label("Fc1ccc(-c2nc(C(Cl)Cl)nc3cc(-c4ccccc4)nn23)cc1")
"True"
